All values here come from PubChem BioAssay (EPA / NIEHS).

- Read-out: Monocyte Chemoattractant Protein-1 (MCP1), CCL2 (gene 6347)
- assay.method.text: BSK_CASM3C_MCP1: BioMAP Diversity Plus: CASM3C Assay for Monocyte Chemoattractant Protein-1 (MCP1) Biomarker Activity (AID 2283046);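 further: MCP-1 level quantified by ELISA 24 h after dosing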
- particulars: primary human coronary artery smooth muscle cells; actives raise or lower the signal
Activity calls are given as the source filed them. How the source made its calls: active means hit-call score of the fitted dose curve at least 0.9, where 1 is the maximum; inactive means score below 0.9.
recorded.endpoint: AC50

Below: 5 molecules and their reported AC50.
CCSC(C)CC1CC(=O)C(C(CC)=NOC/C=C/Cl)=C(O)C1 (centres undefined) ... inactive
CCOP(=S)(OCC)Oc1ccc(S(C)=O)cc1 (centres undefined) ... inactive
CCCCC(CC)CO[N+](=O)[O-] (centres undefined) ... 20 µM (active)
Oc1c(I)cc(I)cc1I ... inactive
CCN1CCC2(CC1)COc1cc3c(cc12)N(C(=O)c1ccc(-c2ccc(-c4nnc(C)o4)cc2C)cc1)CC3 ... 28.5 µM (active)

Look at each molecule and report its AC50.
1. C=CC(=O)OCCCCCC(C)C
2. O=Cc1cccc(Oc2ccccc2)c1
3. CC(C)c1ccc(CO)cc1

1: inactive; 2: inactive; 3: inactive

Look at each molecule and report its AC50.
1. Cc1ccccc1N
2. OCc1ccco1
3. COP(=S)(OC)Oc1ccc(Sc2ccc(OP(=S)(OC)OC)cc2)cc1
4. COP(=S)(OC)Oc1cc(Cl)c(Cl)cc1Cl
5. CC(=O)[O][Hg][c]1ccccc1

1. inactive
2. inactive
3. inactive
4. inactive
5. 0.394 µM (active)

GET /values?readout=AC50&item= `Nc1cccc2ccccc12`
inactive

###

- assay.system: Transcription factor Sp1 (Homo sapiens) (UniProt P08047)
- Sequence (P08047 whole entry, looked up): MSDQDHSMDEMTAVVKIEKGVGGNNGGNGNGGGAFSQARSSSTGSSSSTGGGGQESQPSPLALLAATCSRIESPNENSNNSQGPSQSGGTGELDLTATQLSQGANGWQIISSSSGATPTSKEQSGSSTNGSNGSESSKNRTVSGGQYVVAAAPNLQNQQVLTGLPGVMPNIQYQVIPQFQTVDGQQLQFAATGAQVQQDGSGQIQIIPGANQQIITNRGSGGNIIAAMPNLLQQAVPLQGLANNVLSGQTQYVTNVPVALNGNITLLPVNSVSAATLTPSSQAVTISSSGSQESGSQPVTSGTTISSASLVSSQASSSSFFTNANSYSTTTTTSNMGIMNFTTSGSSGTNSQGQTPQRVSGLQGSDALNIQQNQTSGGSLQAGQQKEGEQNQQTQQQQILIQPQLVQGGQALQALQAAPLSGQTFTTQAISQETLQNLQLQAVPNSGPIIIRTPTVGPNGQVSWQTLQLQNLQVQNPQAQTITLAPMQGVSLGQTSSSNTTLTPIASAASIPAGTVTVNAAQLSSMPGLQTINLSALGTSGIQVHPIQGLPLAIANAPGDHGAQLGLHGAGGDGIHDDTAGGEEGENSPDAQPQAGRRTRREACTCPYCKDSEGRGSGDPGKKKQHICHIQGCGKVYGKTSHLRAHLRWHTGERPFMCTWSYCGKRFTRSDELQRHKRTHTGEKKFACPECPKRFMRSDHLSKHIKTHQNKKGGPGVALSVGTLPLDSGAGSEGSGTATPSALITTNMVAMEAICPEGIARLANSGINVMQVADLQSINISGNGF
- assay.method.text: ATG_Sp1_CIS: Attagene CIS-FACTORIAL HepG2 Assay for human Specificity Protein 1 (Sp1) (AID 2282961)
- particulars: HepG2 Sp1 cis-reporter transcription, actives raise or lower the signal
Activity calls are given as the source filed them. Rule for the calls: active = hit-call score of the fitted dose curve at least 0.9, where 1 is the maximum; inactive = score below 0.9.
Response enum: 1 for active, 0 for inactive

Examples from the recorded data:
NNC(=S)NN ... 0
ClC1(Cl)C2(Cl)C3(Cl)C4(Cl)C(Cl)(Cl)C5(Cl)C3(Cl)C1(Cl)C5(Cl)C24Cl (stereo not drawn) ... 0
CC1CN1P(=O)(N1CC1C)N1CC1C (stereo not drawn) ... 0
O=C(OC1CCCCC1)c1ccccc1C(=O)OC1CCCCC1 ... 0
CCC(C)(C)c1ccc(O)c(C(C)(C)CC)c1 ... 0

Please look at the following compound next.
Hi, sorry to bother you, what did the test record for `O=c1[nH]c(=O)[nH]c(=O)[nH]1` ?
0

###

- assay.method.text: ATG_FoxO_CIS: Attagene CIS-FACTORIAL HepG2 Assay for human Forkhead box O (FoxO) (AID 2282943)
- particulars: HepG2 Attagene cis-reporter, FoxO element, mRNA; actives raise or lower the signal
Active and inactive are the calls of the source. Rule for the calls: active = hit-call score of the fitted dose curve at least 0.9, where 1 is the maximum; inactive = score below 0.9.
Response enum: class 1 = active, class 0 = inactive

Examples from the recorded data:
C=CC(=O)OCCCCCC(C)C ... class 0
Nc1ccc(-c2ccc(N)c(Cl)c2)cc1Cl ... class 0
C[C@]12CC[C@H](O)CC1=CC[C@@H]1[C@@H]2CC[C@]2(C)C(=O)CC[C@@H]12 ... class 0

Please look at the following compound next.
Hi, sorry to bother you, what did the test record for `C=CC#N` ?
class 0

###

- assay.method.text: BSK_4H_Eotaxin3: BioMAP Diversity Plus: 4H Assay for Eotaxin 3 Biomarker Activity (AID 2283000)
- particulars: primary human endothelial cells (HUVEC); actives raise or lower the signal
The source made the active and inactive calls. How the source made its calls: active means hit-call score of the fitted dose curve at least 0.9, where 1 is the maximum; inactive means score below 0.9.
Response enum: 1 (active), 0 (inactive)

Examples from the recorded data:
O=[N+]([O-])c1ccc2c3c(cccc13)CC2 ... 0
CCOP(=S)(OCC)Oc1nc(Cl)c(Cl)cc1Cl ... 1
COc1cc(-c2ccc(N)c(OC)c2)ccc1N ... 0

Hi, sorry to bother you, what did the test record for `BrCCBr` ?
0

Hi, sorry to bother you, what did the test record for `CCCCCCCCc1ccc(O)cc1` ?
1

Hi, sorry to bother you, what did the test record for `Oc1c(I)cc(I)cc1I` ?
1

Hi, sorry to bother you, what did the test record for `CC(C)(c1ccccc1)c1ccc(O)c(C(C)(C)c2ccccc2)c1` ?
1

Hi, sorry to bother you, what did the test record for `CC(C)(C)CC(C)(C)c1ccc(O)cc1` ?
1

Hi, sorry to bother you, what did the test record for `COP(=S)(OC)Oc1ccc(S(=O)(=O)N(C)C)cc1` ?
0

Hi, sorry to bother you, what did the test record for `ClC(Cl)=C(Cl)C(Cl)=C(Cl)Cl` ?
1

Hi, sorry to bother you, what did the test record for CCOP(=S)(OCC)Oc1ccc(S(C)=O)cc1 (centres undefined) ?
0

###

- assay.method.text: BSK_LPS_SRB: Viability Assessment in the BioMAP Diversity Plus: LPS Assay (AID 2283079);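 further: total protein by sulforhodamine B absorbance as a cytotoxicity measure; measured one day after compound addition; fitted in both directions against DMSO so loss or gain of signal counts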
- particulars: primary human HUVEC with PBMC
Activity calls are given as the source filed them. Rule for the calls: active = hit-call score of the fitted dose curve at least 0.9, where 1 is the maximum; inactive = score below 0.9.
Response enum: active, inactive

Examples from the recorded data:
CC(C)c1ccc(CO)cc1 ... inactive
Oc1cccc2cccnc12 ... inactive

Please look at the following compound next.
Hi, sorry to bother you, what did the test record for CCC(=O)C(CC(C)N(C)C)(c1ccccc1)c1ccccc1 (configuration not stated) ?
inactive

###

- assay.method.text: CEETOX_H295R_CORTISOL: CeeTox H295R High-throughput Steroidogenesis Assay for Cortisol (AID 2283438);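 further: cortisol secreted into medium quantified by LC-MS/MS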
- particulars: actives raise or lower the signal
Activity calls are given as the source filed them. Rule for the calls: active = hit-call score of the fitted dose curve at least 0.9, where 1 is the maximum; inactive = score below 0.9.
recorded.endpoint: AC50

Below: 6 compounds and their reported AC50.
CCOP(=S)(OCC)Oc1nc(Cl)c(Cl)cc1Cl ... 81.6 µM (active)
O=C(Cc1ccccc1)c1ccccc1 ... inactive
C=CC(=O)N(C)C ... inactive
C[C@]12CC[C@H](O)CC1=CC[C@@H]1[C@@H]2CC[C@]2(C)C(=O)CC[C@@H]12 ... 7.72 µM (active)
CCOP(=S)(OCC)SCCS(=O)(=O)CC ... inactive
Fc1ccc(C2(Cn3cncn3)OC2c2ccccc2Cl)cc1 (stereo not given) ... 3.04 µM (active)

Look at each compound and report its AC50.
1. Oc1ccc(-c2ccccc2)cc1
2. C1CCC(NC2CCCCC2)CC1
3. O=C(Nc1ccc2[nH]ccc2c1)c1cc2cc(F)ccc2n1Cc1cccc(F)c1
4. CCOP(=S)(OCC)SCSP(=S)(OCC)OCC

["inactive", "inactive", "4.26 µM (active)", "inactive"]

###

- assay.method.text: ACEA_AR_antagonist_AUC_viability: ACEA Biosciences xCELLigence Real-Time Cell Analysis on Androgen Receptor Antagonism for Viability (AID 2283776);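 further: 22Rv1 human prostate cancer cells growing on impedance electrode plates; area under impedance growth curve at 80 h after dosing as viability; hits lower the growth signal relative to DMSO meaning cytotoxicity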
Inconclusive results are not listed. Calls of active or inactive are those of the source. How the source made its calls: active means hit-call score of the fitted dose curve at least 0.9, where 1 is the maximum; inconclusive means response in the unintended direction; inactive means score below 0.9.
recorded.endpoint: AC50

CC(C)c1cccc(C(C)C)c1O ... inactive
C[C@@H]1C[C@@H]([C@H](O)CC2CC(=O)NC(=O)C2)C(=O)[C@@H](C)C1 ... 1.35 µM (active)
C1CCC(NC2CCCCC2)CC1 ... inactive
CC1(C)CCC(Cc2ccc(Cl)cc2)C1(O)Cn1cncn1 (stereo not drawn) ... inactive
Cn1sc(Cl)cc1=O ... 80.7 µM (active)

Look at each compound and report its AC50.
1. CCC[CH2][Sn]([CH2]CCC)([CH2]CCC)[O]C(=O)c1ccccc1
2. Clc1nc(Cl)nc(Cl)n1
3. ClCC(Cl)CCl
4. CCOC(=O)Nc1cccc(OC(=O)Nc2ccccc2)c1
5. COC(=O)c1sccc1S(=O)(=O)NC(=O)Nc1nc(C)nc(OC)n1
6. O=C(Nc1ccc2[nH]ccc2c1)c1cc2cc(F)ccc2n1Cc1cccc(F)c1
7. CC12CC1(C)C(=O)N(c1cc(Cl)cc(Cl)c1)C2=O (stereo not drawn)

["1.06 µM (active)", "inactive", "inactive", "inactive", "inactive", "10 µM (active)", "81 µM (active)"]

GET /values?readout=AC50&item= `O=S(=O)(c1ccc(Cl)cc1)c1ccc(Cl)cc1`
inactive

###

- assay.method.text: BSK_CASM3C_Proliferation: Cell Proliferation Assessment in the BioMAP Diversity Plus: CASM3C Assay (AID 2283047);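 further: sulforhodamine B total protein stain as relative cell number at 560 nm; sub-confluent cells exposed 48 h before staining; fitted both ways against DMSO so gain or loss of cell number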
- particulars: primary human coronary artery smooth muscle cells
Active and inactive are the calls of the source. The calls were made as follows: active = hit-call score of the fitted dose curve at least 0.9, where 1 is the maximum; inactive = score below 0.9.
recorded.endpoint: AC50

Below: 5 molecules and their reported AC50.
CCOP(=S)(OCC)Oc1ccc(S(C)=O)cc1 (stereo not drawn) ... inactive
CCCCC(CC)CO[N+](=O)[O-] (stereo not drawn) ... inactive
Cn1sc(Cl)cc1=O ... 6.81 µM (active)
ClC1(Cl)C2(Cl)C3(Cl)C4(Cl)C(Cl)(Cl)C5(Cl)C3(Cl)C1(Cl)C5(Cl)C24Cl (stereo not drawn) ... inactive
CN(C)N=O ... inactive

Look at each molecule and report its AC50.
1. CCOP(=S)(OCC)Oc1nc(Cl)c(Cl)cc1Cl
2. CC1(C)Cc2cccc(O)c2O1

1: inactive; 2: inactive
